Experiment: probe aNOTCH2 binding on compound microarray – biochemical, small-molecule microarray, 635/667 nm fluorescence, primary screen (AID 1121);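 note: score merges feature fluorescence read at 667 nm with its signal to noise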
Details: higher = more signal
We use -0.1 as the dividing line for composite z-score: on or above the line is YES, below is NO.

Dear colleague, could you confirm whether CC(C)(C)OC(=O)CC[C@]1(C(N)=O)N=C(c2ccc(OCCCO)cc2)O[C@H]1c1ccccc1 has composite z-score at or above -0.1?
YES

And for COC(=O)[C@@]1(Cc2ccc(OC)cc2)[C@H]2c3cc(C(=O)N(C)C)n(Cc4ccc(C(F)(F)F)nc4)c3C[C@H]2CN1C(=O)c1ccccc1 ?
YES

And for CC(C)N1CC=CC23O[C@@H]4C=CCOC(=O)[C@@H]4[C@H]2C(=O)N(CCCCCO)[C@@H]3C1=O (stereo partly specified) ?
NO

And for CN1C(=O)C2C=CC(C(O)c3c(F)cccc3Cl)N(NC(=O)OC(C)(C)C)C2C1=O (stereo unspecified) ?
YES

And for [N-]=[N+]=NCc1ccccc1C[C@@]1(C(=O)NCC(O)CO)N=C(c2ccc(OCCCO)cc2)O[C@@H]1c1ccccc1 (stereo partly specified) ?
YES

And for O=C(CS)NCCCCCNC(=O)[C@@H]1C[C@@H]2C(=O)NCC(=O)N2[C@@H]1c1ccc(O)cc1 ?
NO

And for C=CC[C@@]1(C(=O)N2CCCCC2)N=C(c2ccc(OCCCO)cc2)O[C@@H]1c1ccccc1CN=[N+]=[N-] ?
YES

And for COC(=O)[C@]1(CCC(=O)OC(C)(C)C)N=C(c2ccc(OCCCO)cc2)O[C@@H]1c1ccccc1 ?
YES

And for O=C1OCC=C[C@H]2OC34C=CCN(CCN5CCOCC5)C(=O)[C@H]3N(CCO)C(=O)[C@@H]4[C@@H]12 (stereo partly specified) ?
NO

And for COC(=O)[C@@]1(CCC(=O)OC(C)(C)C)N=C(c2ccc(OCCCO)cc2)O[C@H]1c1ccccc1 ?
YES

And for COCCCNC(=O)[C@@H]1c2ccccc2C(=O)N(Cc2ccccc2OC)[C@H]1c1ccc(CO)cc1 ?
NO

And for Cc1ccc(S[C@]2(C(=O)O)CC(=O)N(C(C)C)[C@@H]2c2ccc(CO)cc2)cc1 ?
NO

And for COCCOC(=O)N1C(=O)[C@@]2(c3cc(C#CCCO)ccc31)[C@H](c1ccc(OCCO)cc1)N1[C@H](c3ccccc3)[C@H](c3ccccc3)OC(=O)[C@H]1[C@@H]2C(N)=O ?
YES

And for CCCCC(O)C1C=CC2C(=O)N(C)C(=O)C2N1N1CCCCC1 (stereo unspecified) ?
YES
